B1: Gamma-crystallin C, residues 4 to 79; numbered along this chain, P07315 (parent)
chain: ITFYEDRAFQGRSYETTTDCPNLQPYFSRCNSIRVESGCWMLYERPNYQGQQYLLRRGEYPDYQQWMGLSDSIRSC

Variants of: B1
Test: abundance fitness (aPCA) (normalised: wild type 0, dead -1); higher = more abundant; growth selection in yeast, the domain comes from the species named
Conditions: Homo sapiens
abundance fitness vs -0.1: at or above is Condition met, below is Condition not met.

Some solved entries appear below for comparison.
# CHANGES, DISCRETE LABEL
data = [
    ("Y48C", "Condition met"),
    ("S75H", "Condition not met"),
    ("Y26E", "Condition not met"),
    ("E44H", "Condition not met"),
]

Problem: Test whether the variant `S70W` records abundance fitness of -0.1 or higher.
Solution: Condition met

Problem: Would you say `S28I` shows abundance fitness at minimum -0.1?
Solution: Condition met

Problem: Answer whether abundance fitness of `Q24R` is greater than or equal to -0.1.
Solution: Condition met

Data provenance: the Human Domainome abundance scans (Beltran et al. 2025)
